TESTED_TARGET: mouse HER2 (23-653) (Mus musculus)
EXPERIMENT_NOTES: TR-FRET competition assay for peptide potency, mouse HER2
Format: binding
Parameters: mouse HER2 (23-653) using a Cy5 labeled peptide as a probe; made in house; host or cells: mammalian cells
CONDITION_CONTEXT: TR-FRET competition with Cy5 labeled peptide probe, 0.1 nM mouse HER2, 24 h incubation; read-out: moHER2 TR-FRET IC50
Starred links: 1 amine or outer side, 2 acyl side, 3 side chain; linkers in the order of their positions; H or OH if unused. Positions of bridges follow the written chain, without caps; N, C: chain ends. Non-standard residues stand in square brackets, D forms with d. Residues, ends and D or L forms follow the SMILES beside them. Trp(5-OH) = N[C@@H](Cc1c[nH]c2ccc(O)cc12)C(=O)O; NMePhe(4-F) = CN[C@@H](Cc1ccc(F)cc1)C(=O)O; X1 = O=C([C@H](Cc1cnn2ccccc12)N[*:1])[*:2]; NMehPhe = CN[C@@H](CCc1ccccc1)C(=O)O; Gly(cPr) = N[C@H](C(=O)O)C1CC1; NMeDap = CN[C@@H](CN)C(=O)O; NMeS = CN[C@@H](CO)C(=O)O
READOUT_TYPE: IC50

Consider the compound CC(=O)N[C@H]1CCC(=O)NC[C@@H](C(=O)N(C)[C@@H](Cc2ccc(F)cc2)C(N)=O)N(C)C(=O)[C@H](C2CC2)NC(=O)[C@H](Cc2cnn3ccccc23)NC(=O)[C@H](Cc2c[nH]c3ccc(O)cc23)NC(=O)[C@H](CO)N(C)C(=O)[C@H](CCc2ccccc2)N(C)C(=O)[C@H](CO)NC(=O)[C@H](Cc2ccc(O)cc2)NC1=O [Example A21] (Ac-EYS[NMehPhe][NMeS][Trp(5-OH)][X1][Gly(cPr)][NMeDap][NMePhe(4-F)]-NH2; lactam 1-9) and give its measured IC50.
> 1000 nM
